Molecular target: T1, human DLL3 (immobilized human DLL3 or h293-hDLL3 cells) (human, UniProt Q9NYJ7 27-492, limits assumed)
T1 construct: the sentence says 'immobilized human DLL3 or h293-hDLL3 cells'
T1 sequence: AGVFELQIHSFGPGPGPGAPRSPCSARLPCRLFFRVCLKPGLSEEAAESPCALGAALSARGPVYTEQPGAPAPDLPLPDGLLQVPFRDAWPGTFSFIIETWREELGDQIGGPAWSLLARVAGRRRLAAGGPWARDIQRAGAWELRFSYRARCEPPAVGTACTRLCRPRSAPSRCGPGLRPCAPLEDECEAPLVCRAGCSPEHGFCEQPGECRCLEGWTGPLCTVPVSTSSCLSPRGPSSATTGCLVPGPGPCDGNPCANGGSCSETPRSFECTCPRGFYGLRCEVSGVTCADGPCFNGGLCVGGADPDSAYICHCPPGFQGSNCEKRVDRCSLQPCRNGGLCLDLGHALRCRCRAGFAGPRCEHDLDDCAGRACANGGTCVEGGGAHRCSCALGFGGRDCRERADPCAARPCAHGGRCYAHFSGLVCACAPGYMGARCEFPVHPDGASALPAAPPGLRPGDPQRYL
Assay: hybridoma screening on immobilized human DLL3 or on h293-hDLL3 cells

Binder	binding result
SC16.57 (antibody, V domains shown, murine mAb; variable regions only) VH: EVKLVESGGDLVKPGGSLKLSCAASGFAFSSYDMSWVRQTPEKRLEWVATISSGGSYTYYPDSVKGRFTISRDNVRDTLYLQMSSLRSEDTALYYCARQAIGTYFDYWGQGTTLTVSS VL: DIVMTQSHKFMSISVGDRVSITCKASQDVSIFVAWYQQKPGQSPKLLIYSASYRYTGVPDRFTGSGSGTDFIFTISSVQAEDLAVYYCQQHYGTPFTFGSGTKLKIR	binds
SC16.30 (antibody, V domains shown, murine mAb; variable regions only) VH: QVTLKESGPGILQPSQTLSLTCSFSGFSLSTSGMGVGWIRQPSGKGLEWLAHIWWDDVKRYKPALKSRLTVSKDTSSNQVFLKIATVDAADTGTYYCARIVDGHPPFAYWGQGTLVTVSA VL: QIVLTQSPTIMSASLGERVTMTCTASSSVTSSYLHWYQQKPGSSPKLWIYSTSNLASGVPARFSGSGSGTSYSLTISSMEAEDAATYYCHQFHRSPFTFGSGTKLEIK	binds

// provenance: patent US20180044415A1
